Where these numbers come from: patent US4861889A

- TEST_PROTOCOL: phenyl-p-benzoquinone writhing assay (analgesic activity)
- Type: in vivo, male mice (Charles River, CD-1)
- RECORDED_CONDITIONS: Mus musculus, sc; mice, 20 mg/kg, s.c.; read-out: % Inhibition of writhing at a screening dose of 20 mg/kg, s.c.
Structures can show the parent of a compound that is named as a salt.
We begin with a simple list: items and their reported inhibition in vivo at 20 mg/kg.
Express it in %; write the number only.

Past entries and their recorded results:
| MOLECULE | inhibition in vivo at 20 mg/kg (%) |
| --- | --- |
| Cc1[nH]c2ccccc2c1CCCN1[C@@H]2CC[C@H]1C[C@@H](Oc1c(F)c(F)c(F)c(F)c1F)C2 | 39 |
| CN(C)C(=O)N1[C@@H]2CC[C@H]1C[C@H](Oc1c(F)c(F)c(F)c(F)c1F)C2 | 39 |
| COc1cc2onc(CCCN3[C@@H]4CC[C@H]3C[C@@H](Oc3c(F)c(F)c(F)c(F)c3F)C4)c2cc1OC | 37 |
| Fc1ccc2c(CCCN3[C@@H]4CC[C@H]3C[C@H](Oc3c(F)c(F)c(F)c(F)c3F)C4)noc2c1 [HYDROCHLORIDE] | 49 |
| COc1ccccc1N1CCN(CCCN2[C@@H]3CC[C@H]2C[C@@H](Oc2c(F)c(F)c(F)c(F)c2F)C3)CC1 | 55 |

Next:
q: Quick check: inhibition in vivo at 20 mg/kg of NC(=O)N1[C@@H]2CC[C@H]1C[C@@H](Oc1c(F)c(F)c(F)c(F)c1F)C2 ?
a: 38
